system: Hs-578-T; experiment: Anti-proliferation assay (ATPLite), Chalice synergy score; type: cell-based; settings: Compound 1 in combination with second active agent, mean self-cross + 2σ threshold 4.09
Field: Synergy score. Provide a value for each of the molecules that follow.
Number, no unit, nothing else.

Summary: CC[C@@H]1C(=O)N(C)c2cnc(Nc3ccc(C(=O)NC4CCN(C)CC4)cc3OC)nc2N1C1CCCC1 , Hs-578-T, Synergy score = 4.48

// Synergy score (Hs-578-T) for C[C@]12CC[C@@H]3c4ccc(O)cc4C[C@@H](CCCCCCCCC[S+]([O-])CCCC(F)(F)C(F)(F)F)[C@H]3[C@@H]1CC[C@@H]2O (stereo partly shown) = 2.10

Record for COc1cc2nccc(Oc3ccc(NC(=O)C4(C(=O)Nc5ccc(F)cc5)CC4)cc3)c2cc1OC under target or system Hs-578-T: Synergy score reported as 3.19

With Hs-578-T as the test system, COc1ccc(C2=N[C@@H](c3ccc(Cl)cc3)[C@@H](c3ccc(Cl)cc3)N2C(=O)N2CCNC(=O)C2)c(OC(C)C)c1 showed Synergy score of 1.65

The molecule COc1c(C)cnc(Cn2cnc3c(Cl)nc(N)nc32)c1C on Hs-578-T: Synergy score was 1.19

Case CC[C@@]1(O)C(=O)OCc2c1cc1n(c2=O)Cc2cc3cc(O)ccc3nc2-1 [10-Hydroxycamptothecin] , Hs-578-T, Synergy score recorded as 1.70

Noted Synergy score for N.N.O=C([O-])C1(C(=O)[O-])CCC1.[Pt+2] , tested on Hs-578-T: 1.65

---

Would you mind telling me the reported Synergy score of each entry?
tested on: MDA-MB-157; experiment: Anti-proliferation assay (ATPLite), Chalice synergy score; type: cell-based; details: Compound 1 in combination with second active agent, mean self-cross + 2σ threshold 4.68
Counter-ions that a name gives are not always drawn.
In your answer, state the number alone without any accompanying words.

Please fill in: Synergy score reported for CCc1cc(Nc2nccc(-c3c(-c4ccc(OC)c(C(=O)Nc5c(F)cccc5F)c4)nc4ccccn34)n2)c(OC)cc1N1CCC(N2CCN(S(C)(=O)=O)CC2)CC1 [GSK1904529A] = 0.82

# Synergy score (compound: O=C(NC(NC(=S)Nc1ccc(F)c([N+](=O)[O-])c1)C(Cl)(Cl)Cl)C(c1ccccc1)c1ccccc1 (centres unmarked) ) is 1.88

Field Synergy score (entry CNC(=O)c1cc(Oc2ccc(NC(=O)Nc3ccc(Cl)c(C(F)(F)F)c3)cc2)ccn1 ) reads 0.56

# compound CN(C)CC[C@H](CSc1ccccc1)Nc1ccc(S(=O)(=O)NC(=O)c2ccc(N3CCN(Cc4ccccc4-c4ccc(Cl)cc4)CC3)cc2)cc1[N+](=O)[O-] ; its Synergy score = 4.46

Consider C[C@@H]1CN(CC(=O)Nc2ccc3c(c2)Cc2cccc(-c4cc(=O)cc(N5CCOCC5)o4)c2S3)C[C@H](C)O1 . Its measured Synergy score is 0.13

The reported Synergy score of the compound C[C@@]1(C(=O)Nc2ccc(F)nc2)CCCN1c1nc(Nc2cc(C3CC3)n[nH]2)c2cccn2n1 was 9.46

Just so you know, measured Synergy score for Oc1c2ccccc2c2c3c(cccc13)N=N2 came out at 1.18

The compound listed as C[C@]1(c2nc3c(C(N)=O)cccc3[nH]2)CCCN1 has a reported Synergy score of 0.90

Noted for COc1cccc2c1C(=O)c1c(O)c3c(c(O)c1C2=O)C[C@@](O)(C(=O)CO)C[C@@H]3O[C@H]1C[C@H](N)[C@H](O)[C@H](C)O1 [Doxorubicin Hcl, Doxorubicin HCl] : its Synergy score reads 8.50

// sample NC1(c2ccc(-c3nc4ccn5c(=O)[nH]nc5c4cc3-c3ccccc3)cc2)CCC1 , its Synergy score was 9.00

get_value(item= O=C(NC[C@H](O)CO)c1ccncc1Nc1ccc(I)cc1F , readout=Synergy score) returns 6.66

The reported Synergy score of the compound Nc1ccccc1NC(=O)c1ccc(CNC(=O)OCc2cccnc2)cc1 was 8.10

// recorded Synergy score for O=C(/C=C/c1cccc(S(=O)(=O)Nc2ccccc2)c1)NO : 7.58

Please fill in: Synergy score reported for COc1c(C)cnc(Cn2cnc3c(Cl)nc(N)nc32)c1C = 3.94

// sample CN(C)CCCn1cc(C2=C(c3c[nH]c4ccccc34)C(=O)NC2=O)c2ccccc21 [GF 109203X] , its Synergy score was 6.19

// recorded Synergy score for COCCn1c2c([n+](Cc3cnccn3)c1C)C(=O)c1ccccc1C2=O : 5.42

For record Cc1ccc(S(=O)(=O)/C=C/C#N)cc1 the listed Synergy score is 3.65

Provenance of the data: patent US9737535B2
